Target: UniProt P97535
Sequence (P97535 whole entry): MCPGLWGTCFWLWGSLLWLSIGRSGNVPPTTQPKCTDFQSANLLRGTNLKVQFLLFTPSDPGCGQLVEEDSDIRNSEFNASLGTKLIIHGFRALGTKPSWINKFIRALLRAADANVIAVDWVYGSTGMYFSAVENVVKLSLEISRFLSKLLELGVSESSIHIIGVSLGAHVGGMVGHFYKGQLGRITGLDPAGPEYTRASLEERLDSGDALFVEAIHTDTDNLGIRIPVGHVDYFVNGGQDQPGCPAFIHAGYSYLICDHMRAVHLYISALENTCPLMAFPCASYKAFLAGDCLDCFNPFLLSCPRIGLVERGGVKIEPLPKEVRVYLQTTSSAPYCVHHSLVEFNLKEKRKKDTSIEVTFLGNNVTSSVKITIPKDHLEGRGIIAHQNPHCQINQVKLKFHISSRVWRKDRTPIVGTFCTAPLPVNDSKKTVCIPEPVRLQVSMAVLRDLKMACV
Experiment: IC50 was measured as concentration causing 50% inhibition of lysosomal phospholipase A1 activity
Answer each item with its documented pIC50.
Please note pIC50 is a logarithmic value: minus log10 of concentration in mol/L. Answer with that number alone.

The compound CCNC1CC(N)C(OC2OC(CNC(=O)CN)=CCC2N)C(O)C1OC1OCC(C)(O)C(NC)C1O (centres undefined) showed pIC50 equal to 3.93

The compound C[C@H](N)C(=O)N[C@@H](C)C(=O)NC[C@H]1O[C@H](O[C@H]2[C@@H](O)[C@@H](O[C@H]3O[C@@H](CO)[C@@H](O)[C@H](N)[C@@H]3O)[C@H](N)C[C@@H]2N)[C@H](O)[C@H](O)[C@@H]1O showed pIC50 equal to 4.31

The compound CCNC1CC(N)C(OC2OC(CNC(=O)C(N)CC(=O)O)=CCC2N)C(O)C1OC1OCC(C)(O)C(NC)C1O (centres undefined) showed pIC50 equal to 3.88

The compound CCN[C@@H]1C[C@H](N)[C@@H](O[C@H]2OC(CNC(=O)[C@H](C)NC(=O)[C@H](C)N)=CC[C@H]2N)[C@@H](O)[C@H]1O[C@H]1OC[C@](C)(O)[C@H](NC)[C@@H]1O showed pIC50 equal to 4.00
